# maps each entry to its MIC
System: Staphylococcus epidermidis CCM 4418 (ATCC 12228)
Assay: Antibacterial microdilution broth (EUCAST)
Assay type: cell-based
Settings: Staphylococcus epidermidis; 24h incubation; read-out: MIC SE
experimental.endpoint: MIC

>>> observed_value("Cc1cc(C(=O)Nc2nc(-c3ccccc3)cs2)cc(Cl)n1 [Compound 16a]")
"> 500 µM"
>>> observed_value("O=C(Nc1nc(-c2ccccc2)cs1)c1ccnc(Cl)c1 [Compound 15a]")
"> 500 µM"
>>> observed_value("Cc1cc(C(=O)Nc2ncco2)ccn1 [Compound 5b]")
"> 500 µM"
>>> observed_value("O=C(Nc1nccs1)c1cnc(Cl)cn1 [Compound 9a]")
"> 500 µM"
>>> observed_value("O=C(Nc1nc(-c2ccccc2)cs1)c1cnc2ccccc2n1 [Compound 19a]")
"> 250 µM"
>>> observed_value("O=C(Nc1nc(-c2ccccc2)co1)c1ccnc(Cl)c1 [Compound 15b]")
"250 µM"
>>> observed_value("O=C(Nc1ncco1)c1cnccn1 [Compound 8b]")
"> 500 µM"
>>> observed_value("O=C(Nc1nccs1)c1cccnc1 [Compound 2a]")
"> 500 µM"
>>> observed_value("O=C(Nc1nc(-c2ccccc2)co1)c1ccncc1 [Compound 13b]")
"125 µM"
>>> observed_value("O=C(Nc1nccs1)c1ccncc1 [Compound 3a]")
"> 500 µM"
>>> observed_value("Cc1cncc(C(=O)Nc2ncco2)c1 [Compound 4b]")
"500 µM"
>>> observed_value("O=C(Nc1nc(-c2ccccc2)cs1)c1ccncc1 [Compound 13a]")
"> 125 µM"
>>> observed_value("O=C(Nc1nccs1)c1cnc2ccccc2n1 [Compound 10a]")
"> 500 µM"
>>> observed_value("O=C(Nc1ncco1)c1ccncc1 [Compound 3b]")
"500 µM"
>>> observed_value("O=C(Nc1nc(-c2ccccc2)co1)c1cnc2ccccc2n1 [Compound 19b]")
"> 500 µM"
>>> observed_value("O=C(Nc1ncco1)c1cnc(Cl)cn1 [Compound 9b]")
"> 500 µM"
>>> observed_value("O=C(Nc1nc(-c2ccccc2)co1)c1cccnc1 [Compound 12b]")
"62.5 µM"
>>> observed_value("Cc1cc(C(=O)Nc2nc(-c3ccccc3)co2)cc(Cl)n1 [Compound 16b]")
"125 µM"

====

Tested on: Candida parapsilosis CCM 8260 (ATCC 22019)
Assay: Antifungal microdilution broth (EUCAST)
Conditions: Lodderomyces parapsilosis, 24 h, read-out: MIC CP
# maps each entry to its MIC
experimental.endpoint: MIC

>>> observed_value("O=C(Nc1ncco1)c1cnccn1 [Compound 8b]")
"> 500 µM"
>>> observed_value("O=C(Nc1nccs1)c1ccnc(Cl)c1 [Compound 6a]")
"> 500 µM"
>>> observed_value("Cc1cc(C(=O)Nc2nc(-c3ccccc3)cs2)cc(Cl)n1 [Compound 16a]")
"> 125 µM"
>>> observed_value("O=C(Nc1nccs1)c1cnccn1 [Compound 8a]")
"> 500 µM"
>>> observed_value("O=C(Nc1nccs1)c1cccnc1 [Compound 2a]")
"> 500 µM"
>>> observed_value("O=C(Nc1ncco1)c1ccncc1 [Compound 3b]")
"> 500 µM"
>>> observed_value("O=C(Nc1nc(-c2ccccc2)cs1)c1cnc2ccccc2n1 [Compound 19a]")
"> 125 µM"
>>> observed_value("Cc1cncc(C(=O)Nc2ncco2)c1 [Compound 4b]")
"> 500 µM"
>>> observed_value("O=C(Nc1ncco1)c1cnc(Cl)cn1 [Compound 9b]")
"500 µM"
>>> observed_value("O=C(Nc1nc(-c2ccccc2)co1)c1ccnc(Cl)c1 [Compound 15b]")
"500 µM"
>>> observed_value("O=C(Nc1nccs1)c1ccccn1 [Compound 1a]")
"500 µM"
>>> observed_value("O=C(Nc1nc(-c2ccccc2)co1)c1cnccn1 [Compound 17b]")
"> 500 µM"
>>> observed_value("O=C(Nc1nccs1)c1cnc2ccccc2n1 [Compound 10a]")
"> 500 µM"

====

System: Mycobacterium tuberculosis H37Ra ITM-M006710 (ATCC 9431)
Assay: Antimycobacterial MIC, microdilution broth / Alamar Blue (resazurin)
Assay type: cell-based
Details: Mycobacterium tuberculosis, 120 h, Middlebrook 7H9, resazurin after 120 h; read-out: Mtb H37Ra MIC
experimental.endpoint: MIC (µg/mL)

>>> observed_value("O=C(Nc1ncco1)c1cnc2ccccc2n1 [Compound 10b]")
15.6
>>> observed_value("O=C(Nc1ncco1)c1cccnc1 [Compound 2b]")
31.2
>>> observed_value("O=C(Nc1nc(-c2ccccc2)cs1)c1ccnc(Cl)c1 [Compound 15a]")
3.91
>>> observed_value("O=C(Nc1ncco1)c1ccccn1 [Compound 1b]")
62.5
>>> observed_value("O=C(Nc1nc(-c2ccccc2)co1)c1ccccc1 [Compound 20b]")
62.5
>>> observed_value("O=C(Nc1nccs1)c1ccncc1 [Compound 3a]")
250
>>> observed_value("O=C(Nc1nccs1)c1cnc(Cl)cn1 [Compound 9a]")
31.2
>>> observed_value("Cc1cc(C(=O)Nc2nc(-c3ccccc3)co2)cc(Cl)n1 [Compound 16b]")
15.6
>>> observed_value("O=C(Nc1ncco1)c1cnccn1 [Compound 8b]")
31.2
>>> observed_value("O=C(Nc1nccs1)c1cccnc1 [Compound 2a]")
250
>>> observed_value("O=C(Nc1nc(-c2ccccc2)co1)c1ccnc(Cl)c1 [Compound 15b]")
7.81
>>> observed_value("O=C(Nc1nc(-c2ccccc2)co1)c1ccncc1 [Compound 13b]")
31.2
>>> observed_value("O=C(Nc1ncco1)c1ccnc(Cl)c1 [Compound 6b]")
3.12
>>> observed_value("Cc1cc(C(=O)Nc2nc(-c3ccccc3)cs2)cc(Cl)n1 [Compound 16a]")
7.81
>>> observed_value("Cc1cncc(C(=O)Nc2ncco2)c1 [Compound 4b]")
7.81

====

Test system: Pseudomonas aeruginosa CCM 3955 (ATCC 27853)
Assay: Antibacterial microdilution broth (EUCAST)
Format: cell-based
Conditions: Pseudomonas aeruginosa; 72h incubation; read-out: MIC PA
experimental.endpoint: MIC

>>> observed_value("O=C(Nc1nc(-c2ccccc2)cs1)c1ccccn1 [Compound 11a]")
"> 500 µM"
>>> observed_value("O=C(Nc1ncco1)c1ccnc(Cl)c1")
"> 500 µM"
>>> observed_value("O=C(Nc1ncco1)c1cnccn1")
"> 500 µM"
>>> observed_value("O=C(Nc1nc(-c2ccccc2)cs1)c1ccnc(Cl)c1 [Compound 15a]")
"> 500 µM"
>>> observed_value("O=C(Nc1nc(-c2ccccc2)co1)c1ccncc1 [Compound 13b]")
"> 500 µM"
>>> observed_value("Cc1cncc(C(=O)Nc2nc(-c3ccccc3)co2)c1 [Compound 14b]")
"> 250 µM"
>>> observed_value("O=C(Nc1nc(-c2ccccc2)co1)c1ccnc(Cl)c1 [Compound 15b]")
"> 500 µM"
>>> observed_value("O=C(Nc1nc(-c2ccccc2)co1)c1ccccc1 [Compound 20b]")
"> 500 µM"
>>> observed_value("O=C(Nc1ncco1)c1cnc(Cl)cn1")
"> 500 µM"
>>> observed_value("Cc1cncc(C(=O)Nc2ncco2)c1")
"> 500 µM"
>>> observed_value("O=C(Nc1nc(-c2ccccc2)co1)c1cccnc1 [Compound 12b]")
"> 500 µM"
>>> observed_value("O=C(Nc1nccs1)c1cnc(Cl)cn1")
"> 500 µM"
>>> observed_value("O=C(Nc1nc(-c2ccccc2)cs1)c1ccncc1 [Compound 13a]")
"> 125 µM"
>>> observed_value("O=C(Nc1nc(-c2ccccc2)co1)c1cnc2ccccc2n1 [Compound 19b]")
"> 500 µM"
>>> observed_value("O=C(Nc1nc(-c2ccccc2)co1)c1cnccn1 [Compound 17b]")
"> 500 µM"
>>> observed_value("O=C(Nc1ncco1)c1ccncc1")
"> 500 µM"
>>> observed_value("Cc1cc(C(=O)Nc2nc(-c3ccccc3)cs2)cc(Cl)n1 [Compound 16a]")
"> 500 µM"
>>> observed_value("O=C(Nc1nc(-c2ccccc2)cs1)c1cccnc1 [Compound 12a]")
"> 125 µM"
>>> observed_value("O=C(Nc1nccs1)c1cnccn1")
"> 500 µM"
>>> observed_value("O=C(Nc1nccs1)c1cnc2ccccc2n1 [Compound 10a]")
"> 500 µM"
>>> observed_value("O=C(Nc1nc(-c2ccccc2)co1)c1ccccn1 [Compound 11b]")
"> 500 µM"
>>> observed_value("Cc1cc(C(=O)Nc2ncco2)ccn1")
"> 500 µM"
>>> observed_value("O=C(Nc1nccs1)c1cccnc1")
"> 500 µM"
>>> observed_value("O=C(Nc1ncco1)c1cnc2ccccc2n1 [Compound 10b]")
"> 500 µM"
>>> observed_value("Cc1cc(C(=O)Nc2nc(-c3ccccc3)co2)cc(Cl)n1 [Compound 16b]")
"> 125 µM"
>>> observed_value("O=C(Nc1ncco1)c1cccnc1")
"> 500 µM"
>>> observed_value("O=C(Nc1ncco1)c1ccccn1")
"> 500 µM"
>>> observed_value("Cc1cc(C(=O)Nc2nccs2)cc(Cl)n1")
"> 500 µM"
>>> observed_value("O=C(Nc1nccs1)c1ccnc(Cl)c1")
"> 500 µM"
>>> observed_value("O=C(Nc1nc(-c2ccccc2)cs1)c1cnc2ccccc2n1 [Compound 19a]")
"> 250 µM"
>>> observed_value("O=C(Nc1nccs1)c1ccccn1")
"> 500 µM"
>>> observed_value("O=C(Nc1nccs1)c1ccncc1")
"> 500 µM"

Values from paper PMC9143880
